Taken from patent US10927188B2.

Percentage content of secondary structure In HEPES by entry:
test: Percentage content of secondary structure by CD (circular dichroism) spectrum; assay type: physicochemical; conditions: free peptide in HEPES buffer solution (10 mM HEPES-HCl, 150 mM NaCl, pH 7.4, 25° C.)
Where no end group is shown, it is not given here.
resultType: Percentage content of secondary structure In HEPES (%)

# substance, numericReadout
data = [
    ("KKKEQQNAFYEILHKKK (SIMILAR (4)..(14) SEQ ID No.2 EQQNAFYEILH; SIMILAR (4)..(10) SEQ ID No.1 EQQNAFY) [Short-chain peptide 3]", 33),
    ("KKRREQQNAFYEILHKRRKK [Short-chain peptide 6]", 35),
    ("KKKKEQQNAFYEILHKKKK (SIMILAR (5)..(11) SEQ ID No.1 EQQNAFY; SIMILAR (5)..(15) SEQ ID No.2 EQQNAFYEILH) [Short-chain peptide 4]", 32),
    ("KKRKEQQNAFYEILHKRRKK [Short-chain peptide 7]", 35),
    ("KKKKKEQQNAFYEILH (SIMILAR (6)..(12) SEQ ID No.1 EQQNAFY; SIMILAR (6)..(16) SEQ ID No.2 EQQNAFYEILH) [Short-chain peptide 2]", 30),
    ("KKRKEQQKKFYKKLHK [Short-chain peptide 8]", 16),
    ("Ac-KAAKEQQKAFYKILH [Short-chain peptide 5]", 36),
]

###

Measured Percentage content of secondary structure In MeOH, listed per entry for reference.
experiment: Percentage content of secondary structure by CD (circular dichroism) spectrum; assay type: physicochemical; details: free peptide in methanol (purity 99.5% by mass)
Where no end group is shown, it is not given here.
resultType: Percentage content of secondary structure In MeOH

# substance, result
rows = [
    ("KKKKEQQNAFYEILHKKKK (SIMILAR (5)..(11) SEQ ID No.1 EQQNAFY; SIMILAR (5)..(15) SEQ ID No.2 EQQNAFYEILH) [Short-chain peptide 4]", "100%"),
    ("KKRREQQNAFYEILHKRRKK [Short-chain peptide 6]", "100%"),
    ("KKRKEQQKKFYKKLHK [Short-chain peptide 8]", "88%"),
    ("KKRKEQQNAFYEILHKRRKK [Short-chain peptide 7]", "100%"),
    ("KKKKKEQQNAFYEILH (SIMILAR (6)..(12) SEQ ID No.1 EQQNAFY; SIMILAR (6)..(16) SEQ ID No.2 EQQNAFYEILH) [Short-chain peptide 2]", "84%"),
    ("KKKEQQNAFYEILHKKK (SIMILAR (4)..(14) SEQ ID No.2 EQQNAFYEILH; SIMILAR (4)..(10) SEQ ID No.1 EQQNAFY) [Short-chain peptide 3]", "100%"),
    ("Ac-KAAKEQQKAFYKILH [Short-chain peptide 5]", "92%"),
]
